This collection of values is drawn from paper PMC12117711.

target: His6-CRBN/DDB1 (Homo sapiens, UniProt Q96SW2); test: TR-FRET ligand displacement assay (Thal-FITC tracer) with His6-CRBN/DDB1; conditions: KD (M), Protein CRBN; from IC50 with Correction Factor 1.43
Residues, ends and D or L forms follow the SMILES beside them. *: point of attachment. Aspartimide = O=C1C[C@H](N*)C(=O)N1; Fmoc = O=C(OCC1c2ccccc2-c2ccccc21)*; X3 = O=C1CC[C@@H](N*)C(=O)N1; X1 = O=C1C[C@@H](N*)C(=O)N1; X2 = O=C1CC[C@H](N*)C(=O)N1
OBSERVABLE: Kd (M)
Numbers only, in M.

Look over these answered cases.
CN1C(=O)CCC(N2Cc3c(N)cccc3C2=O)C1=O (stereo not drawn) [Me-Len, reference compound] :: 1.07e-05
O=C(CNC(=O)CNC(=O)OCC1c2ccccc2-c2ccccc21)NCC(=O)N[C@@H](Cc1ccccc1)C(=O)N[C@H]1CCC(=O)NC1=O [Fmoc-GGGFcQ] (Fmoc-GGGF-X2) :: 8.94e-08
O=C(CNC(=O)CNC(=O)OCC1c2ccccc2-c2ccccc21)NCC(=O)N[C@@H](Cc1ccccc1)C(=O)N[C@@H]1CC(=O)NC1=O [Fmoc-GGGFepicN] (Fmoc-GGGF-X1) :: 2.86e-06
O=C(CNC(=O)CNC(=O)OCC1c2ccccc2-c2ccccc21)NCC(=O)N[C@@H](Cc1ccccc1)C(=O)N[C@@H]1CCC(=O)NC1=O [Fmoc-GGGFepicQ] (Fmoc-GGGF-X3) :: 5.39e-07

Consider the following items and state reported Kd for each.
1. O=C(CNC(=O)CNC(=O)OCC1c2ccccc2-c2ccccc21)NCC(=O)N[C@@H](Cc1ccccc1)C(=O)N[C@H]1CC(=O)NC1=O [Fmoc-GGGFcN] (Fmoc-GGGF-Aspartimide)
2. C[C@H](NC(=O)CNC(=O)CNC(=O)CN)C(=O)N[C@H]1CC(=O)NC1=O [GGGAcN] (H-GGGA-Aspartimide)

[out]
3.67e-08
2.42e-07
